- experiment.notes: Metabolic stability using human liver microsomes
- Assay type: in vitro ADME
- assay.conditions: Table 3; vs dextroethorphan or dextroisoproporphan
Where a name gives a salt, the structure may show the parent alone.
reported.endpoint: Change over non-deuterated compound (half-life)
Please answer using a numeric value trailed by its unit.

I need Change over non-deuterated compound (half-life) for every entry listed below, if you could help.
1. [2H]C([2H])([2H])C([2H])([2H])Oc1ccc2c(c1)[C@]13CCCC[C@@H]1[C@H](C2)N(C)CC3 [Compound 104, hydrochloride]
2. [2H]C([2H])([2H])C([2H])(Oc1ccc2c(c1)[C@]13CCCC[C@@H]1[C@H](C2)N(C)CC3)C([2H])([2H])[2H]

Ans:
["109%", "91%"]

I need Change over non-deuterated compound (half-life) for every entry listed below, if you could help.
1. [2H]C([2H])([2H])N1CC[C@@]23CCCC[C@@H]2[C@@H]1Cc1ccc(OC([2H])(C([2H])([2H])[2H])C([2H])([2H])[2H])cc13
2. [2H]C([2H])([2H])N1CC[C@@]23CCCC[C@@H]2[C@@H]1Cc1ccc(OC([2H])([2H])C([2H])([2H])[2H])cc13 [Compound 100, hydrochloride]

Ans:
69%
109%
